molecular target: Fibrinogen beta chain (Homo sapiens) (UniProt P02675); test: fibrin DD(E) probe displacement, second cyclic peptide – biochemical, fluorescence polarization, human fibrin, counter-screen for fibrin DD(E)-Tn6 binding project, confirmation (AID 720621); settings: TRITC-Tn6 fluorescence polarization displacement, at 8.3 µM, 0% = median of compound wells, not DMSO
Sequence (P02675 whole entry, looked up): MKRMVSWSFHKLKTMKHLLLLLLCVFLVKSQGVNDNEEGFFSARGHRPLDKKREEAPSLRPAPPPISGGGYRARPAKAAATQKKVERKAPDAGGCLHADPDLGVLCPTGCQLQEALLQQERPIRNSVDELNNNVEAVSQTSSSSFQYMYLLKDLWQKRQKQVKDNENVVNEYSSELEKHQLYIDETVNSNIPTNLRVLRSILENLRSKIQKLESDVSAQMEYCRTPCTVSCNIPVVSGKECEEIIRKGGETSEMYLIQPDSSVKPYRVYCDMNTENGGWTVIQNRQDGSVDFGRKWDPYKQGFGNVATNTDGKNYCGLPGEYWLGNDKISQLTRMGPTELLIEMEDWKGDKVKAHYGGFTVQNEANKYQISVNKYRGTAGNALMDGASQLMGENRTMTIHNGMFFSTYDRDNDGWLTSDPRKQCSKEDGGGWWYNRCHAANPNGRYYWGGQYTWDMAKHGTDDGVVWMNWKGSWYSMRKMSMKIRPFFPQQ
Some of the results follow. The source made the active and inactive calls.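 The calls were made as follows: active = inhibition above the mean of test compounds lying between the control limits plus 3 SD of those (cut at about 14% in these data); inactive = the rest.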
Outcomes: active, inactive

Compound	Target under test	Class name
O=C(NCCNc1ccccc1[N+](=O)[O-])c1ccccc1F	Fibrinogen beta chain (Homo sapiens) (UniProt P02675)	inactive
O=C(CCl)NNc1cccc(Cl)n1	Fibrinogen beta chain (Homo sapiens) (UniProt P02675)	inactive
CCOC(=O)N1CCN(Cc2nc(N)nc(Nc3ccc(C)cc3)n2)CC1	Fibrinogen beta chain (Homo sapiens) (UniProt P02675)	inactive
Cc1cc2nc3c(=O)[nH]c(=O)nc-3n(C[C@H](O)[C@H](O)[C@H](O)CO)c2cc1C	Fibrinogen beta chain (Homo sapiens) (UniProt P02675)	active
CONc1nc2nonc2nc1NOC	Fibrinogen beta chain (Homo sapiens) (UniProt P02675)	inactive
Cc1nn(C)cc1N1C(=O)c2cccc3c(N)ccc(c23)C1=O	Fibrinogen beta chain (Homo sapiens) (UniProt P02675)	inactive
Cc1cc2ccccc2n1CCNC(=O)COc1ccc2ccccc2c1	Fibrinogen beta chain (Homo sapiens) (UniProt P02675)	inactive
Cc1ccc(-c2nn(-c3ccccc3)cc2/C=C/C(=O)Nc2cccc(S(N)(=O)=O)c2)cc1	Fibrinogen beta chain (Homo sapiens) (UniProt P02675)	inactive
O=c1[nH]n(-c2ccc([N+](=O)[O-])cc2)c(=O)c2ccccc12	Fibrinogen beta chain (Homo sapiens) (UniProt P02675)	inactive
CCOCC(=O)NCc1ccc2c(c1)cc(C)n2C	Fibrinogen beta chain (Homo sapiens) (UniProt P02675)	inactive
Cc1nnsc1S(=O)(=O)Cc1ccccc1Cl	Fibrinogen beta chain (Homo sapiens) (UniProt P02675)	inactive
Cc1ccc(NC(=O)CN2CCc3ccccc3C2)cc1	Fibrinogen beta chain (Homo sapiens) (UniProt P02675)	inactive
COc1ccc(N2C(=O)NC(NS(=O)(=O)c3ccc(Cl)cc3)(C(F)(F)F)C2=O)cc1 (configuration not stated)	Fibrinogen beta chain (Homo sapiens) (UniProt P02675)	inactive
Cc1ccc(-c2nc(C)sc2CC(=O)O)cc1	Fibrinogen beta chain (Homo sapiens) (UniProt P02675)	inactive
COc1ccc(Nc2nc(-c3cccnc3)nc3ccccc23)cn1	Fibrinogen beta chain (Homo sapiens) (UniProt P02675)	inactive
Cc1cc2cc(CNC(=O)c3ccc(S(=O)(=O)N4CCOCC4)cc3)ccc2[nH]1	Fibrinogen beta chain (Homo sapiens) (UniProt P02675)	inactive
Oc1ccc(N=Cc2sc3ccccc3c2Cl)cc1	Fibrinogen beta chain (Homo sapiens) (UniProt P02675)	inactive
